Measured values drawn from ChEMBL document CHEMBL3045375 for this set.

Tested on: Bacillus subtilis
ASSAY OVERVIEW: Antibacterial activity against Bacillus subtilis MTCC 441 after 24 hr by broth microdilution method
Assay type: functional
RECORDED CONDITIONS: MTCC 441, 24 h
Item-by-item account of MIC
All answers are understood in µg/mL, so give the number only.

O=C1CCCC2=C1C(c1cn(-c3ccccc3)nc1-c1ccccc1)CC(=O)N2c1ccc(F)cc1 (stereo not given)	0.5

[ask] Name the recorded MIC for `CC1(C)S[C@@H]2[C@H](NC(=O)[C@H](N)c3ccccc3)C(=O)N2[C@H]1C(=O)O` .
[reply] 0.25

[ask] Name the recorded MIC for CC1(C)CC(=O)C2=C(C1)N(c1ccc(F)cc1)C(=O)CC2c1cn(-c2ccccc2)nc1-c1ccc([N+](=O)[O-])cc1 (stereo not given) .
[reply] 0.25

[ask] Name the recorded MIC for O=C1CCCC2=C1C(c1cn(-c3ccccc3)nc1-c1ccc(F)cc1)CC(=O)N2c1ccc(F)cc1 (stereo not given) .
[reply] 0.1

[ask] Name the recorded MIC for CC1(C)CC(=O)C2=C(C1)N(c1ccc(F)cc1)C(=O)CC2c1cn(-c2ccccc2)nc1-c1ccc(Br)cc1 (stereo not given) .
[reply] 0.5
